Data origin: patent US20140303084A1

Molecular target: human Factor IXa (human, UniProt P00740 47-191; P00740 227-461)
Experiment: cell-based or functional assay
Square brackets hold non-standard residues; d marks the D form. Ends that are not written are not given here. NMeL = CN[C@@H](CC(C)C)C(=O)O
READOUT LABEL: EC50 [µM], FXa generation assay

Worked set:
BINDER	EC50 [µM], FXa generation assay
PRIRTVGPGSRRASGKLTCLASYCWLFWTGIA	< 0.5 µM
KK[dK][NMeL]TCLASYCWLF (not fully specified; printed as KK-k-MeLeu-TCLASYCWLF; cysteine pairing not given here) [KK-k-MeLeu-TCLASYCWLF]	> 10 µM
TLLYQNRTCLASYCWLFDKRSV	> 50 µM

Okay, next one:
The binder KLTCLASQCWLF showed EC50 [µM], FXa generation assay equal to < 0.5 µM
